Biological target: Protein kinase C eta type (Homo sapiens);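 also: value is the mean inhibition, from GSK PKIS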
Settings: at 1 µM
Measurement Type: inhibition (%)
Dear colleague, please return just the value in %, with no unit written.

Prompt line: Output inhibition of `ON=C1CCc2cc(-c3nc(C4CCNCC4)[nH]c3-c3ccncc3)ccc21`
Response line: 2.63

Prompt line: Output inhibition of `NS(=O)(=O)c1ccc(-c2cc3ccncc3cc2OCc2ccccc2)cc1`
Response line: 3.62

Prompt line: Output inhibition of `CN(C)C(=O)O[C@H]1CN[C@H](C#Cc2cc3ncnc(Nc4ccc(OCc5cccc(F)c5)c(Cl)c4)c3s2)C1`
Response line: 1.68

Prompt line: Output inhibition of `COc1cc2ncn(-c3cc(OCc4ccccc4S(C)(=O)=O)c(C#N)s3)c2cc1OC`
Response line: -1.63

Prompt line: Output inhibition of `CCS(=O)(=O)c1ccc(OC)c(Nc2ncc(-c3cccc(OC)c3)o2)c1`
Response line: 1.66

Prompt line: Output inhibition of `COc1cc(/C=N/Nc2ncnc3c2cnn3C(C)C)ccc1O`
Response line: 3.21

Prompt line: Output inhibition of `Cc1cc(-c2ccccn2)cc(C)c1/C=C/c1cncc(-c2nn[nH]n2)c1`
Response line: 5.16

Prompt line: Output inhibition of `O=C1Nc2ccccc2/C1=C/Nc1ccc2[nH]c(=O)[nH]c2c1`
Response line: 3.84

Prompt line: Output inhibition of `c1ccc(Cc2nc3ccc(Nc4ncnc5ccccc45)cc3[nH]2)cc1`
Response line: 2.75

Prompt line: Output inhibition of `CC(C)c1ccc(Nc2nccc(-c3cnn4ncccc34)n2)cc1`
Response line: 3.89
